test system: Escherichia coli; assay: Antibacterial activity against Escherichia coli K-12 W3110 after 20 hrs by liquid microdilution method; type: functional; conditions: K-12 W3110, 20 h
reportedMetric: MIC (µg/mL)

sampleSmiles | reportedMetric | boundType | valueObserved
CC(C)C[C@@H]1NC(=O)[C@@H](Cc2ccccc2)NC(=O)[C@H](CN)N(C(=O)O)CCNC(=O)[C@H]([C@@H](C)O)NC(=O)[C@H](CN)NC(=O)[C@H](CCCN)NC1=O | MIC | > | 128
CC(C)C[C@@H]1NC(=O)[C@@H](Cc2ccccc2)NC(=O)[C@H](CCN)N(C(=O)O)CCNC(=O)[C@H]([C@@H](C)O)NC(=O)[C@H](CCN)NC(=O)[C@H](CCN)NC1=O | MIC | > | 128
CC(C)CCCCCCCC(=O)N[C@@H](C(=O)N[C@@H](CN)C(=O)NCC(=O)N1CCNC(=O)[C@H]([C@@H](C)O)NC(=O)[C@H](CCN)NC(=O)[C@H](CCN)NC(=O)[C@H](CC(C)C)NC(=O)[C@@H](Cc2ccccc2)NC(=O)[C@@H]1CCN)[C@@H](C)O | MIC | = | 0.5
CO[C@@H]1[C@@H](OC(N)=O)[C@@H](O)[C@H](Oc2ccc3c(O)c(NC(=O)c4ccc(O)c(CC=C(C)C)c4)c(=O)oc3c2C)OC1(C)C | MIC | = | 128
CC[C@H]1OC(=O)[C@H](C)[C@@H](O[C@H]2C[C@@](C)(OC)[C@@H](O)[C@H](C)O2)[C@H](C)[C@@H](O[C@@H]2O[C@H](C)C[C@H](N(C)C)[C@H]2O)[C@](C)(O)C[C@@H](C)C(=O)[C@H](C)[C@@H](O)[C@]1(C)O | MIC | = | 64

----------
test system: Escherichia coli; experiment: Antibacterial activity against Escherichia coli K-12 W3110 after 20 hrs by liquid microdilution method; type: functional; conditions: K-12 W3110, 20 h
reportedMetric: MIC

sampleSmiles | valueObserved
CC(C)C[C@@H]1NC(=O)[C@@H](Cc2ccccc2)NC(=O)[C@H](CN)N(C(=O)O)CCNC(=O)[C@H]([C@@H](C)O)NC(=O)[C@H](CCCN)NC(=O)[C@H](CN)NC1=O | > 128 µg/mL
CC(C)C[C@@H]1NC(=O)[C@@H](Cc2ccccc2)NC(=O)[C@H](CN)N(C(=O)O)CCNC(=O)[C@H]([C@@H](C)O)NC(=O)[C@H](CN)NC(=O)[C@H](CN)NC1=O | > 128 µg/mL
CC(C)C[C@@H]1NC(=O)[C@@H](Cc2ccccc2)NC(=O)[C@H](CCCN)N(C(=O)O)CCNC(=O)[C@H]([C@@H](C)O)NC(=O)[C@H](CCCN)NC(=O)[C@H](CCCN)NC1=O | > 128 µg/mL

----------
test system: Escherichia coli; assay: Antibacterial activity against Escherichia coli K-12 W3110 after 20 hrs by liquid microdilution method; assay type: functional; settings: K-12 W3110, 20 h
MIC values for the molecules below.

sampleSmiles | unitSymbol | MIC
CCCCCCCC(=O)N[C@@H](CCN)C(=O)N[C@@](C)(C(=O)N[C@@H](CCN)C(=O)N[C@H]1CCNC(=O)[C@H]([C@@H](C)O)NC(=O)[C@H](CCN)NC(=O)[C@H](CCN)NC(=O)[C@H](CC(C)C)NC(=O)[C@@H](Cc2ccccc2)NC(=O)[C@H](CCN)N1)[C@H](C)O | µg/mL | 0.5
CCCCCCCC(=O)N[C@@H](CCN)C(=O)N[C@@H](C(=O)N[C@@H](CCN)C(=O)N[C@H]1CCNC(=O)[C@H]([C@H](C)O)NC(=O)[C@H](CCN)NC(=O)[C@H](CCN)NC(=O)[C@H](CC(C)C)NC(=O)[C@@H](Cc2ccccc2)NC(=O)[C@H](CN)C1=O)[C@H](C)O | µg/mL | 16
